# Test Name: Pharmacokinetic assay in Wistar rats, oral
# Condition: rat, plasma, 30 mg/kg
Can you tell me Cmax for the items I'm about to list?
One number for each entry, in ng/mL.

[2H]C([2H])([2H])C([2H])([2H])n1nccc1C(=O)N[C@H](C(=O)Nc1ncc([C@@H](CN2C[C@@H](C)O[C@@H](C)C2)N2CC(F)(F)CCC2=O)s1)[C@H]1CC[C@H](C)CC1 [Example 849] : 2480
C[C@@H]1CN(C[C@H](c2cnc(NC(=O)[C@@H](NC(=O)C3(F)CC3)[C@H]3CC[C@H](C)CC3)s2)N2CC(F)(F)CNC2=O)CCO1 [Example 1012] : 2220

Then this compound:
Item: C[C@H]1CC[C@H]([C@H](NC(=O)C2(F)CC2)C(=O)Nc2ncc([C@@H](CN3CCC(C(F)F)CC3)N3CC(F)(F)CNC3=O)s2)CC1 [Example 770] | Cmax: 1350
